- ASSAYED SYSTEM: Hsp90 (C. albicans whole cell lysate) (Candida albicans (strain SC5314 / ATCC MYA-2876) (Yeast))
- MEASUREMENT DESCRIPTION: biochemical
- Assay type: binding
- SETTINGS: FP competition, whole cell lysate, duplicate, screening experiment; read-out: C. albicans EC50
pEC50: −log10 of the molar value.
MEASURED METRIC: pEC50

COc1ccc(Cn2nc(C)cc2Nc2cc(O)cc(O)c2C(=O)N(C)CC2CC2)cc1; < 5.05

Now examine the next entry.
Request the reported pEC50 associated with COc1ccc(Cn2nc(C)cc2Nc2cc(O)cc(O)c2C(=O)N(C)Cc2ccccc2)cc1
< 5.22

====

- ASSAYED SYSTEM: Hsp90 (C. albicans whole cell lysate) (Candida albicans (strain SC5314 / ATCC MYA-2876) (Yeast))
- MEASUREMENT DESCRIPTION: biochemical
- Type: binding
- SETTINGS: read-out: C. alb EC50
Listing of entries alongside the reported pEC50.
Scale for pEC50: -log10 of concentration given in mol/L; no unit attached.

CN1CCN(c2ccc3c(c2)CN(C(=O)c2c(O)cc(O)cc2Nc2cc(-c4cccc(C(F)(F)F)c4)nn2C)C3)CC1; 5.94
COc1ccccc1-c1cc(Nc2cc(O)cc(O)c2C(=O)N2CC[C@H](NC(C)=O)C2)n(C)n1 [ACSM01349]; 5.92
Cc1cccc(-c2cc(Nc3cc(O)cc(O)c3C(=O)N3Cc4ccccc4C3)n(C)n2)c1C; 5.21
Cc1ccc(F)c(-c2cc(Nc3cc(O)cc(O)c3C(=O)N3Cc4ccccc4C3)n(C)n2)c1; 5.78
COc1ccccc1-c1cc(Nc2cc(O)cc(O)c2C(=O)N2CC[C@H](OC)C2)n(C)n1; 6.20
COc1cccc(-c2cc(Nc3cc(O)cc(O)c3C(=O)N3Cc4ccncc4C3)n(C)n2)c1; 4.97
Cn1nc(-c2cccc(Cl)c2)cc1Nc1cc(O)cc(O)c1C(=O)N1Cc2ccccc2C1; 5.38
O=C(c1c(O)cc(O)cc1Nc1cc(-c2ccccc2)nn1-c1ccccc1)N1Cc2ccccc2C1; 5.72

# query: pEC50 of entry COc1ccc(Cn2nc(-c3ccccc3)cc2Nc2cc(O)cc(O)c2C(=O)N2Cc3ccncc3C2)cc1
7.96

Input Cc1cccc(-c2cc(Nc3cc(O)cc(O)c3C(=O)N3Cc4ccc(N5CCN(C)CC5)cc4C3)n(C)n2)c1
5.67

Would you kindly repeat that for Cn1nc(-c2cc(F)ccc2F)cc1Nc1cc(O)cc(O)c1C(=O)N1Cc2ccccc2C1 ?
5.95

Again, but for COc1ccccc1-c1cc(Nc2cc(O)cc(O)c2C(=O)N2CC[C@H](NC(C)=O)C2)n(C)n1 [ACSM01348]
5.65

What would you report for COc1ccccc1-c1cc(Nc2cc(O)cc(O)c2C(=O)N2CC[C@H](N)C2)n(C)n1 ?
5.27

Here is the next compound: Cc1ccccc1-c1cc(Nc2cc(O)cc(O)c2C(=O)N2Cc3ccc(F)cc3C2)n(C)n1
6.04

Subsequent entry: Cc1nn(-c2cccc(C(F)(F)F)c2)c(C)c1Nc1cc(O)cc(O)c1C(=O)N1Cc2ccccc2C1
5.80

Repeat with Cn1nc(-c2ccccc2C(F)(F)F)cc1Nc1cc(O)cc(O)c1C(=O)N1Cc2ccncc2C1
6.14

====

- ASSAYED SYSTEM: Hsp90 (C. neoformans whole cell lysate) (Cryptococcus neoformans)
- SETTINGS: read-out: C. neo EC50
Some compounds, each annotated with its measured EC50.
Please state the figure in µM; there is no need to write the unit.

Here is how some compounds turned out for EC50.
COc1ccccc1-c1cc(Nc2cc(O)cc(O)c2C(=O)N2CC[C@H](NC(C)=O)C2)n(C)n1 [ACSM01348]; 0.62
Cn1nc(-c2ccccc2C(F)(F)F)cc1Nc1cc(O)cc(O)c1C(=O)N1Cc2ccncc2C1 [ACSM01491]; 0.047
COc1cccc(-c2cc(Nc3cc(O)cc(O)c3C(=O)N3Cc4ccncc4C3)n(C)n2)c1 [ACSM01492]; 0.258

Turning to the following compound.
Requested read-out EC50, target or system Hsp90 (C. neoformans whole cell lysate) (Cryptococcus neoformans), entry COc1ccccc1-c1cc(Nc2cc(O)cc(O)c2C(=O)N2CC[C@H](NC(C)=O)C2)n(C)n1 [ACSM01349]
0.246

====

- MEASUREMENT DESCRIPTION: in vitro
- SETTINGS: both, CD-1, mouse, microsomes
Quick rule: half-life of at least 6 min means 1, below that means -1.

CC(C)c1ccc(Cn2nccc2Nc2cc(O)cc(O)c2C(=O)N2Cc3ccccc3C2)cc1 [Compound 83]; -1

Can COc1cccc(-c2cc(Nc3cc(O)cc(O)c3C(=O)N3Cc4cccnc4C3)n(C)n2)c1 [Compound 113] be said to have half-life at or above 6 min?
-1

====

- SETTINGS: mouse liver microsomes, with NADPH
Quick reference: % remaining at 60 min of the listed items.
Give your result in % as a bare value.

Some entries whose results are on file:
Cn1nc(-c2ccc(C(C)(C)C)cc2)cc1Nc1cc(O)cc(O)c1C(=O)N1Cc2cn[nH]c2C1; 0.5
Cn1nc(-c2ccc(OC(F)(F)F)cc2)cc1Nc1cc(O)cc(O)c1C(=O)N1Cc2cccnc2C1; 3.9
COc1cccc(-c2cc(Nc3cc(O)cc(O)c3C(=O)N3Cc4cn[nH]c4C3)n(C)n2)c1; 7.0
Cn1nc(-c2ccc(OC(F)(F)F)cc2)cc1Nc1cc(O)cc(O)c1C(=O)N1Cc2cn[nH]c2C1; 20.6
COc1cccc(-c2cc(Nc3cc(O)cc(O)c3C(=O)N3Cc4ccccc4C3)n(C)n2)c1; 0

What measured % remaining at 60 min goes with Cc1cccc(-c2cc(Nc3cc(O)cc(O)c3C(=O)N3Cc4cn[nH]c4C3)n(C)n2)c1 ?
1.8

Also CC(C)c1ccc(Cn2nccc2Nc2cc(O)cc(O)c2C(=O)N2Cc3ccccc3C2)cc1 ?
1.8

// repeat for COc1cccc(-c2cc(Nc3cc(O)cc(O)c3C(=O)N3Cc4cccnc4C3)n(C)n2)c1 and report
0

Another compound: Cn1nc(C2CCCCC2)cc1Nc1cc(O)cc(O)c1C(=O)N1Cc2cn[nH]c2C1
0

====

- SETTINGS: mouse liver microsomes, NADPH-free control
In this section, each of the compounds is paired with its reported % remaining at 15 min (NADPH-free).
Give a bare numeral; the unit % is implied.

Known % remaining at 15 min (NADPH-free) results, listed for orientation:
Cn1nc(C2CCCCC2)cc1Nc1cc(O)cc(O)c1C(=O)N1Cc2cn[nH]c2C1; 103.6
Cn1nc(-c2ccc(OC(F)(F)F)cc2)cc1Nc1cc(O)cc(O)c1C(=O)N1Cc2cccnc2C1; 104.1
CC(C)c1ccc(Cn2nccc2Nc2cc(O)cc(O)c2C(=O)N2Cc3ccccc3C2)cc1; 109.1
Cn1nc(-c2ccc(C(C)(C)C)cc2)cc1Nc1cc(O)cc(O)c1C(=O)N1Cc2cn[nH]c2C1; 97.9
COc1cccc(-c2cc(Nc3cc(O)cc(O)c3C(=O)N3Cc4cccnc4C3)n(C)n2)c1; 109.2

# % remaining at 15 min (NADPH-free) lookup, item Cc1cccc(-c2cc(Nc3cc(O)cc(O)c3C(=O)N3Cc4cn[nH]c4C3)n(C)n2)c1
115.3

COc1cccc(-c2cc(Nc3cc(O)cc(O)c3C(=O)N3Cc4ccccc4C3)n(C)n2)c1 ?
99.3

Cn1nc(-c2ccc(OC(F)(F)F)cc2)cc1Nc1cc(O)cc(O)c1C(=O)N1Cc2cn[nH]c2C1 ?
71.7

Query COc1cccc(-c2cc(Nc3cc(O)cc(O)c3C(=O)N3Cc4cn[nH]c4C3)n(C)n2)c1 next
108.2

====

- ASSAYED SYSTEM: C. neoformans Hsp90 NBD (Cryptococcus neoformans)
- Sequence (J9VVA4 1-699): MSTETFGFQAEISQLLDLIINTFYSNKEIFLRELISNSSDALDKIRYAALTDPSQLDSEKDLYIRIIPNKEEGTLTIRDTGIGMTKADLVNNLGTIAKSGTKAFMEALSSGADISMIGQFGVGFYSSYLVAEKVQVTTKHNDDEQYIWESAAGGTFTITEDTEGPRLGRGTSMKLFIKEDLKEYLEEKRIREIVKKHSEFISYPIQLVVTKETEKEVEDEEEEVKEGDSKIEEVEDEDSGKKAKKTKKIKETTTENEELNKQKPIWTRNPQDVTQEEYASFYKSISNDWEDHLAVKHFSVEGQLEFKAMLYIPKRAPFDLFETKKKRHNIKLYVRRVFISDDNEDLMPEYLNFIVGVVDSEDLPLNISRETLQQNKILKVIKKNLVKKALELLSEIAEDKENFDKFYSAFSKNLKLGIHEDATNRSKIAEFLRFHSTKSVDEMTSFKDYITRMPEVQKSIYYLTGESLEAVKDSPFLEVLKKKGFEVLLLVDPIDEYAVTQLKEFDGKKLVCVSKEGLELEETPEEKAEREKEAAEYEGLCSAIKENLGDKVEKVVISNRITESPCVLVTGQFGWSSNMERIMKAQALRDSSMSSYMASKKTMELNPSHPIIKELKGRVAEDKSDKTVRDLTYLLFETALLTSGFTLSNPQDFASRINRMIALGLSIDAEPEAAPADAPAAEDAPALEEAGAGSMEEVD
- MEASUREMENT DESCRIPTION: FP assay with purified C. neoformans Hsp90 NBD (Ki)
- SETTINGS: FP, purified recombinant NBD
MEASURED METRIC: Ki (nM)
Write the number in nM without appending the unit.

Query: Ki; subject: Cn1nc(-c2ccc(C(F)(F)F)cc2)cc1Nc1cc(O)cc(O)c1C(=O)N1Cc2ccccc2C1
190

====

- ASSAYED SYSTEM: Hsp90 (C. neoformans whole cell lysate) (Cryptococcus neoformans, UniProt J9VVA4)
- Sequence (J9VVA4 1-699): as above
- SETTINGS: read-out: C. neo EC50
- Method: All analogs were assessed for Hsp90 binding affinity using a fluorescence polarization (FP)-based equilibrium competition assay in fungal and human whole cell lysates. […] Using lysates, the relative potency and selectivity for fungal Hsp90 was measured versus the entire ensemble of human Hsp90 isoforms in microplate format using small amounts of test materials. […] As a result, they provided qualitative evidence of target binding, but not a quantitative measurement of ligand affinity. […]
Overview of reported pEC50 across a group of molecules:
Remember, pEC50 is on a log scale: it is -log10 of the molar concentration.

CN1CCN(c2ccc3c(c2)CN(C(=O)c2c(O)cc(O)cc2Nc2cc(-c4cccc(C(F)(F)F)c4)nn2C)C3)CC1; 7.26

Return reported pEC50; argument: COc1cccc(-c2cc(Nc3cc(O)cc(O)c3C(=O)N3Cc4ccc(N5CCN(C)CC5)cc4C3)n(C)n2)c1
5.91

Now consider COc1ccc(Cn2nc(-c3ccccc3)cc2Nc2cc(O)cc(O)c2C(=O)N2Cc3ccncc3C2)cc1 .
7.12

Next: O=C(c1c(O)cc(O)cc1Nc1cc(-c2ccccc2)nn1-c1ccccc1)N1Cc2ccccc2C1
6.24
